The results of antibiotic drug inhibiting cancer cell lines (cell viability analysis), AGS for assorted compounds
Test system: AGS (Gastric Adenocarcinoma)
RUN DESCRIPTION: Cell viability analysis, gastric cancer AGS
Assay type: cell-based, human
PROPERTY NAME: The results of antibiotic drug inhibiting cancer cell lines (cell viability analysis), AGS

- O=C(Nc1ccc([N+](=O)[O-])cc1Cl)c1cc(Cl)ccc1O [Niclosamide (Niclocide)]: 23.05
- CS(=O)(=O)c1ccc([C@@H](O)[C@@H](CO)NC(=O)C(Cl)Cl)cc1 [Thiamphenicol (Thiophenicol)]: 140.3
- CC(=O)Oc1ccccc1C(=O)Nc1ncc([N+](=O)[O-])s1 [Nitazoxanide (Alinia, Annita)]: 99.04
- N#C[C@@H]1C[C@@H]2C[C@H]2N1C(=O)[C@@H](N)C12CC3CC(CC(O)(C3)C1)C2 [Saxagliptin (BMS-477118, Onglyza)]: 121.3
